# method: Physicochemical properties: absorption and fluorescence (Table 1)
Rule: ε (cm^−1 M^−1) extinction coefficient below 10000 cm⁻¹ M⁻¹ gives yes (1), anything at or above gives no (0).

> print(dat)
                                   molecule    class
1  COc1ccc2c(C[C@H](N)C(=O)O)cc(=O)oc2c1.CS(=O)(=O)O [Example 7]   no (0)
2  COc1cc(O)c2c(C[C@H](N)C(=O)O)cc(=O)oc2c1.O=C(O)C(F)(F)F [Example 12]  yes (1)
3  COc1ccc2c(CC[C@H](N)C(=O)OCc3ccccc3)cc(=O)oc2c1.O=C(O)C(F)(F)F [Example 17]   no (0)
4  COc1ccc2c(CC[C@H](N)C(=O)O)cc(=O)oc2c1.O=C(O)C(F)(F)F [Example 16]   no (0)
5  N[C@@H](Cc1c[nH]c2ccccc12)C(=O)O [W, tryptophan, reference compound]  yes (1)
6  COc1cc2oc(=O)cc(C[C@H](N)C(=O)O)c2cc1OC.O=C(O)C(F)(F)F [Example 9]   no (0)
7  COc1cc(OC)c2c(C[C@H](N)C(=O)O)cc(=O)oc2c1.O=C(O)C(F)(F)F [Example 14]   no (0)

---

As shown below, each of these compounds has a reported QY quantum yield value.
# method: Physicochemical properties: absorption and fluorescence (Table 1)
propertyName: QY quantum yield

> print(dat)
                                   compound  reportedresult
1  N[C@@H](Cc1ccc(O)cc1)C(=O)O [Y, tyrosine, reference compound]            0.13
2  CCOc1ccc2c(C[C@H](N)C(=O)O)cc(=O)oc2c1.O=C(O)C(F)(F)F [Example 11]            0.17
3  COc1cc(O)cc2oc(=O)cc(C[C@H](N)C(=O)O)c12.O=C(O)C(F)(F)F [Example 13]            0.18
4  COc1cc(OC)c2c(C[C@H](N)C(=O)O)cc(=O)oc2c1.O=C(O)C(F)(F)F [Example 14]            0.39
5  COc1ccc2c(CC[C@H](N)C(=O)OCc3ccccc3)cc(=O)oc2c1.O=C(O)C(F)(F)F [Example 17]            0.17

---

As shown below, each of these molecules has a reported Em. (nm) value.
# method: Physicochemical properties: absorption and fluorescence (Table 1)
# details: emission wavelength, determined in 95% ethanol
propertyName: Em. (nm)

> print(dat)
                                    molecule  propertyname  reportedresult
 1  N[C@@H](Cc1cc(=O)oc2cc(O)ccc12)C(=O)O.O=C(O)C(F)(F)F      Em. (nm)             464
 2  COc1ccc2c(CC[C@H](N)C(=O)OCc3ccccc3)cc(=O)oc2c1.O=C(O)C(F)(F)F      Em. (nm)             381
 3  N[C@@H](Cc1ccc(O)cc1)C(=O)O [Y, tyrosine, reference compound]      Em. (nm)             303
 4  COc1ccc2c(C[C@@H](N)C(=O)O)cc(=O)oc2c1.O=C(O)C(F)(F)F      Em. (nm)             386
 5  COc1cc(O)cc2oc(=O)cc(C[C@H](N)C(=O)O)c12.O=C(O)C(F)(F)F      Em. (nm)             421
 6  COc1cc2oc(=O)cc(C[C@H](N)C(=O)O)c2cc1OC.O=C(O)C(F)(F)F      Em. (nm)             445
 7  N[C@@H](Cc1c[nH]c2ccccc12)C(=O)O [W, tryptophan, reference compound]      Em. (nm)             352
 8  COc1cc(O)c2c(C[C@H](N)C(=O)O)cc(=O)oc2c1.O=C(O)C(F)(F)F      Em. (nm)             421
 9  N[C@@H](Cc1cc(=O)oc2cc(O)c(Cl)cc12)C(=O)O.O=C(O)C(F)(F)F      Em. (nm)             465
10  COc1ccc2c(CC[C@H](N)C(=O)O)cc(=O)oc2c1.O=C(O)C(F)(F)F      Em. (nm)             380
